Please provide measured IC50 for the entries that follow.
- TESTED ON: recombinant human TRKA (G595R) (Homo sapiens (Human), UniProt P04629, G595R)
- Sequence (P04629 33-796 G595R): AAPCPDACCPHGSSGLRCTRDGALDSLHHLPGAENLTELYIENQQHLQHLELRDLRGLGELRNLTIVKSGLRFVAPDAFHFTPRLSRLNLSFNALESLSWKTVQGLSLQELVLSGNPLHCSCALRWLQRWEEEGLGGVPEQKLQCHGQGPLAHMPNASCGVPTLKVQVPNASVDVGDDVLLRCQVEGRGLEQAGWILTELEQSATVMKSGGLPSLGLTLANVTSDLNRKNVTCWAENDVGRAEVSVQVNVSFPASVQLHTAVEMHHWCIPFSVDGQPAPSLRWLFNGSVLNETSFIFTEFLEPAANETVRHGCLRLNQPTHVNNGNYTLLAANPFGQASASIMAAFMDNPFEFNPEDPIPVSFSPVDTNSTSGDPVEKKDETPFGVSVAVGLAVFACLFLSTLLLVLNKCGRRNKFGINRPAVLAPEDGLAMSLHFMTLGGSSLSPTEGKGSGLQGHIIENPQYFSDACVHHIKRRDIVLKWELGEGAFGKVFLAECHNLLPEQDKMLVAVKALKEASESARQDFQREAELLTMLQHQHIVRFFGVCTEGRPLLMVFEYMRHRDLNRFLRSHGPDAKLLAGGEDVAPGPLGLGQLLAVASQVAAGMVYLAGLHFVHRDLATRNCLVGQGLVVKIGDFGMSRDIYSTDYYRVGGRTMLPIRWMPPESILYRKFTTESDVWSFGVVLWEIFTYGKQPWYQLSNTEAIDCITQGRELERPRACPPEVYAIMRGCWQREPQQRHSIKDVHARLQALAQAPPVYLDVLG
- ASSAY: In vitro activity test on mutant TRKA (G595R) (HTRF kinEASE TK)
- CONDITION SET: 4.5 μM ATP, 30 min, room temperature; read-out: TRKA (G595R) IC 50

Memo: Fc1ccc(F)c([C@H]2C[C@H](F)CN2c2n[nH]c3ncc(-c4ccn(CC(F)F)n4)cc23)c1 [Example 36] , reported IC50: < 1 nM

Memo: Fc1ccc(F)c([C@H]2C[C@H](F)CN2c2n[nH]c3ncc(-c4cnn([C@@H]5CCNC5)c4)cc23)c1 [Example 24] , reported IC50: < 1 nM

Memo: Fc1ccc(F)c([C@H]2C[C@H](F)CN2c2n[nH]c3ncc(-c4cnn(COCc5ccccc5)c4)cc23)c1 [Example 31] , reported IC50: < 10 nM

Memo: COCc1nnc(-c2cnc3[nH]nc(N4C[C@@H](F)C[C@@H]4c4cc(F)ccc4F)c3c2)o1 [Example 37] , reported IC50: < 1 nM

Memo: Fc1ccc(F)c([C@H]2C[C@H](F)CN2c2n[nH]c3ncc(-c4cnn([C@H]5CCNC5)c4)cc23)c1 [Example 25] , reported IC50: < 1 nM

Memo: CN1CC(n2cc(-c3cnc4[nH]nc(N5C[C@@H](F)C[C@@H]5c5cc(F)ccc5F)c4c3)cn2)C1 [Example 29] , reported IC50: < 10 nM

Memo: Fc1ccc(F)c([C@H]2C[C@H](F)CN2c2n[nH]c3ncc(-c4cnn(CC(F)F)c4)cc23)c1 [Example 30] , reported IC50: < 1 nM

Memo: Fc1ccc(F)c([C@H]2C[C@H](F)CN2c2n[nH]c3ncc(-c4cnn(CC5CNC5)c4)cc23)c1 [Example 34] , reported IC50: < 10 nM

Memo: NC(=O)c1cnc2[nH]nc(N3C[C@@H](F)C[C@@H]3c3cc(F)ccc3F)c2c1 [Example 5] , reported IC50: < 10 nM

Memo: O=C(c1n[nH]c2nccc(N[C@@H]3CCC[C@H]3O)c12)N1C[C@@H](F)C[C@@H]1c1cc(F)ccc1F [Example 43] , reported IC50: < 1 nM

Memo: CC(C)(O)Cn1cc(-c2cnc3[nH]nc(N4C[C@@H](F)C[C@@H]4c4cc(F)ccc4F)c3c2)cn1 [Example 32] , reported IC50: < 1 nM

Memo: CC(C)OC(=O)c1cnc2[nH]nc(N3C[C@@H](F)C[C@@H]3c3cc(F)ccc3F)c2c1 [Example 19] , reported IC50: < 1 nM
